Test: Hydrolytic stability was expressed as t1/2
Type: physicochemical

compound: CC(=O)Oc1ccccc1C(=O)OCC1=C(C(=O)OC(C)(C)C)N2C(=O)[C@H](Cl)C2S(=O)(=O)C1 (some centres undefined)
half-life [h]: 2.3
//
compound: CO[C@H]1C(=O)N2C(C(=O)OC(C)(C)C)=C(COC(=O)c3ccccc3OC(C)=O)CS(=O)(=O)C12 (some centres undefined)
half-life [h]: 19
//
compound: CC(C)(C)OC(=O)C1=C(COC(=O)Cc2ccccc2Nc2c(Cl)cccc2Cl)CS(=O)(=O)C2[C@@H](Cl)C(=O)N12 (some centres undefined)
half-life [h]: 73
//
compound: CO[C@H]1C(=O)N2C(C(=O)OC(C)(C)C)=C(COC(=O)Cc3ccccc3Nc3c(Cl)cccc3Cl)CS(=O)(=O)C12 (some centres undefined)
half-life [h]: 60

====

Assay: Steady state velocity of inhibitor concentration required to inhibit porcine pancreatic elastase was determined by using Lineweaver-Burke Plot
Parameters: species or system Sus scrofa
pIC50: −log10 of the molar value.

molecule: CC1=C(C(=O)OC(C)(C)C)N2C(=O)[C@H](Cl)C2S(=O)(=O)C1 (stereo partly specified)
pIC50: 4.46

molecule: CC(C)(C)OC(=O)C1=C(COC(=O)Cc2ccccc2Nc2c(Cl)cccc2Cl)CS(=O)(=O)C2[C@@H](Cl)C(=O)N12 (stereo partly specified)
pIC50: 6.74

molecule: CC(=O)Oc1ccccc1C(=O)OCC1=C(C(=O)OC(C)(C)C)N2C(=O)[C@H](Cl)C2S(=O)(=O)C1 (stereo partly specified)
pIC50: 6.60

molecule: CO[C@H]1C(=O)N2C(C(=O)OC(C)(C)C)=C(COC(=O)c3ccccc3OC(C)=O)CS(=O)(=O)C12 (stereo partly specified)
pIC50: 6.96

molecule: CO[C@H]1C(=O)N2C(C(=O)OC(C)(C)C)=C(COC(=O)Cc3ccccc3Nc3c(Cl)cccc3Cl)CS(=O)(=O)C12 (stereo partly specified)
pIC50: 6.96

molecule: CO[C@H]1C(=O)N2C(C(=O)OC(C)(C)C)=C(C)CS(=O)(=O)C12 (stereo partly specified)
pIC50: 4.14

====

Assay: Steady state velocity of inhibitor concentration required to inhibit porcine pancreatic elastase was determined by using Dixon Plot
Design: species or system Sus scrofa
pIC50: −log10 of the molar value.
property.measured: pIC50

compound: CO[C@H]1C(=O)N2C(C(=O)OC(C)(C)C)=C(C)CS(=O)(=O)C12 (some centres undefined)
property.measured: pIC50
experimental.result: 4.96

compound: CC(=O)Oc1ccccc1C(=O)OCC1=C(C(=O)OC(C)(C)C)N2C(=O)[C@H](Cl)C2S(=O)(=O)C1 (some centres undefined)
property.measured: pIC50
experimental.result: 6.46

compound: CC(C)(C)OC(=O)C1=C(COC(=O)Cc2ccccc2Nc2c(Cl)cccc2Cl)CS(=O)(=O)C2[C@@H](Cl)C(=O)N12 (some centres undefined)
property.measured: pIC50
experimental.result: 6.17

compound: CC1=C(C(=O)OC(C)(C)C)N2C(=O)[C@H](Cl)C2S(=O)(=O)C1 (some centres undefined)
property.measured: pIC50
experimental.result: 4.96

The reported numbers originate from ChEMBL document CHEMBL1129890.
